- test-target: rFVIII (Homo sapiens)
- Sequence (P00451 20-2351): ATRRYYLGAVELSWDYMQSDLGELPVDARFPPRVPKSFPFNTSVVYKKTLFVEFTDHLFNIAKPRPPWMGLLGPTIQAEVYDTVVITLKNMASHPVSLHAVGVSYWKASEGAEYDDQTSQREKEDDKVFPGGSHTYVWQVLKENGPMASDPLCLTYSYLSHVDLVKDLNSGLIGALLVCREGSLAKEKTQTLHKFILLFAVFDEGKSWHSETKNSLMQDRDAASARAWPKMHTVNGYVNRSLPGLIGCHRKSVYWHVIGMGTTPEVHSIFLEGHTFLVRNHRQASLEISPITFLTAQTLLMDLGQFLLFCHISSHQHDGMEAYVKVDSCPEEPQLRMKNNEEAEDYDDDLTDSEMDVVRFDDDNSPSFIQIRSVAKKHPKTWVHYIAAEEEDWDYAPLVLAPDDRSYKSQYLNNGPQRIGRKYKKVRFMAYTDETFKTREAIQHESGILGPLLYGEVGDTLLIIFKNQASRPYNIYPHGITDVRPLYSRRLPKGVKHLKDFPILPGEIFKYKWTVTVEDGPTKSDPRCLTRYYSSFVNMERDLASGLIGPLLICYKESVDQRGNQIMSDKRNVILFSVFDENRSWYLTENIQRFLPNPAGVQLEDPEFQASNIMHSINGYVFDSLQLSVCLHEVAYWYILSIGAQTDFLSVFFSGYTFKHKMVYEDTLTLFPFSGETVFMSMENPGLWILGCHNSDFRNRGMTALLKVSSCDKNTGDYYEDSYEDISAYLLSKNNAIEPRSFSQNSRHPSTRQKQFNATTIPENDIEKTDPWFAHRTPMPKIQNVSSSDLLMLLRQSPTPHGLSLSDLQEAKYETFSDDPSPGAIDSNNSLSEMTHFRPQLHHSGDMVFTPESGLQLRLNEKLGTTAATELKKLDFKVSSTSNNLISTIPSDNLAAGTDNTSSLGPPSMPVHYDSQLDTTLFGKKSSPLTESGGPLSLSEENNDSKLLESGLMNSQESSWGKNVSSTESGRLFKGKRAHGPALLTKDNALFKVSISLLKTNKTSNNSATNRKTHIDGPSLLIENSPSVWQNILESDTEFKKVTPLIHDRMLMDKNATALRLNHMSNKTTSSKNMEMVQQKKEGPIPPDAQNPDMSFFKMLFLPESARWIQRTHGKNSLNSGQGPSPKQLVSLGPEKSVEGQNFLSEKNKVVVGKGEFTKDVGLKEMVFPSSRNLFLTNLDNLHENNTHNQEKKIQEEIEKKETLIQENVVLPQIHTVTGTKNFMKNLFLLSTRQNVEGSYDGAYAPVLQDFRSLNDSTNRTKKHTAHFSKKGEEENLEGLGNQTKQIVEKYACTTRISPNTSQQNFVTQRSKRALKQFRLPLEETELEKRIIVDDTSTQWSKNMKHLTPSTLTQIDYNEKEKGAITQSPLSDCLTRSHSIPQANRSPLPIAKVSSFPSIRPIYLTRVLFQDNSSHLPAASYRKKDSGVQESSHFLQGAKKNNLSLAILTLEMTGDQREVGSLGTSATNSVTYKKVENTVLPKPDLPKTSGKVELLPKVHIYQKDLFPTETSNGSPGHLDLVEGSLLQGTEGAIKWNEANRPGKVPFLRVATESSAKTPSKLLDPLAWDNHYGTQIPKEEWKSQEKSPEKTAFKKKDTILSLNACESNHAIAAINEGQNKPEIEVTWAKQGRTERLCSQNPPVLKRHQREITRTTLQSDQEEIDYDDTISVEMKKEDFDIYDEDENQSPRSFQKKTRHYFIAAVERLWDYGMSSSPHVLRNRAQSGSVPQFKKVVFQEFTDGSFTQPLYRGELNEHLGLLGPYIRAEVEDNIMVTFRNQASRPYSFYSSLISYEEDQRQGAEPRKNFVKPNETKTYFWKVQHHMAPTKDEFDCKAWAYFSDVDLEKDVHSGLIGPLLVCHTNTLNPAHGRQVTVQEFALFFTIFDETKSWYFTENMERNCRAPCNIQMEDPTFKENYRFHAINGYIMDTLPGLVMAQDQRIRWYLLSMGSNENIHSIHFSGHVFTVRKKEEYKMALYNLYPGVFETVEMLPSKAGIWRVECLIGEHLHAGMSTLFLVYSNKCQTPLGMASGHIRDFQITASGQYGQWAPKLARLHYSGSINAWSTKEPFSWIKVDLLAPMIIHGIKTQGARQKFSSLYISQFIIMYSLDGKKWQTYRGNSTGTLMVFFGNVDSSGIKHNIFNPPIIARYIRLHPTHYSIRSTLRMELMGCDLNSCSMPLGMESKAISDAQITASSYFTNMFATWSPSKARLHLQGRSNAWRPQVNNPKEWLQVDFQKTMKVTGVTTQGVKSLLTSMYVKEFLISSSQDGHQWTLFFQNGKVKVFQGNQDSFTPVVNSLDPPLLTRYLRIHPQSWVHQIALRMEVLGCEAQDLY
- Sequence (P00451 1668-2351 limits assumed): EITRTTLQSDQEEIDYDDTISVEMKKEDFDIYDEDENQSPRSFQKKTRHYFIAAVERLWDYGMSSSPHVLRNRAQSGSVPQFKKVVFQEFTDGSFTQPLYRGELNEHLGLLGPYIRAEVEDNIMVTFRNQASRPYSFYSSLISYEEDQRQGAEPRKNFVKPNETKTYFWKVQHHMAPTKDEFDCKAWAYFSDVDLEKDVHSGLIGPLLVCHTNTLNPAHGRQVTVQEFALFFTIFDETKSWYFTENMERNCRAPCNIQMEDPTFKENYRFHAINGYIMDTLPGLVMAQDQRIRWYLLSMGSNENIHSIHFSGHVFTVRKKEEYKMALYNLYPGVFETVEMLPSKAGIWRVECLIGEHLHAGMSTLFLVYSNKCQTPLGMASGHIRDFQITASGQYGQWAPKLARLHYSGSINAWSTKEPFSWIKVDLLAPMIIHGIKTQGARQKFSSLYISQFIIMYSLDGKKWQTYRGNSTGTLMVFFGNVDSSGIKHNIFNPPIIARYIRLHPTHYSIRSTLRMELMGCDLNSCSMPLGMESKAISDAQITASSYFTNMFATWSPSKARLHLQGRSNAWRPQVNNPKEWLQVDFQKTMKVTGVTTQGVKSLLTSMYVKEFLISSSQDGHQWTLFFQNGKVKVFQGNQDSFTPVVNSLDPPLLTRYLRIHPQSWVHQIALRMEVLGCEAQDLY
- measurement-description: confirmatory binding assay in filtration plate format using 14C-rFVIII
- protocol-conditions: Table 4; 14C-rFVIII 30 nM in PPF, 5 mg beads
measurement-label: 2% acetic acid dpm
Write the numeric value and append its unit.

12 (QRLIQF) [compound 12] : 271 dpm
11 (NAIFQW) [compound 11] : 518 dpm
22 (FVFLVR) [compound 22] : 783 dpm
15 (VYGVGG) [compound 15] : 115 dpm
20 (WHHHRG) [compound 20] : 2099 dpm

State the recorded 2% acetic acid dpm for this entry: 21 (HFQIFG) [compound 21]
2208 dpm

# repeat for 13 (KAQETW) [compound 13]
135 dpm

Can you handle 19 (FHFGLQ) [compound 19] next?
2148 dpm

Now consider 10 (AFVRSL) [compound 10] and answer again.
188 dpm

Again, but for 9 (FALPGR) [compound 9]
176 dpm

Same question, 14 (EPRVIG) [compound 14] this time
130 dpm
